molecular target: HIV-1LAI envelope gp120 labeled with radioactive iodine (HIV-1 LAI), P03377; assay: 125I-gp120, peptide array
MEASURED ATTRIBUTE: counts minus background (counts per 20 min)

// query Query (binder): SDNYTEEMGSGDYDSMKE (modifications not checked) [CXCR4 9-26] ; field requested: counts minus background (counts per 20 min)
// result 43
